Data provenance: patent US20250320312A1

study target: T1, Peptide 4: Biotin-AGGGGSGGGGSGGGGSAAA-Tyr-acid (N-terminal biotin; C-terminal acid)
T1 construct: Control peptide without PC
T1 peptide: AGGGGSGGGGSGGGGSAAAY
protocol details: scFv ELISA
value type: OD450 (OD450)
// units = OD450; emit number, no label

Examples from the recorded data:
binder="PcOxP_DB04_B10 (scFv, V domains shown, scFv in periplasmic extract) VH: EVQLLESGGGLVQPGGSLRLSCAASGFTDSDFYMEWVRQAPGKGLEWVAASRNKANGYTTEYADSVKGRFTISRDNSKNTLYLQMNSLRAEDTAVYYCARDYYGSSYWYFDVWGQGTLVTVSS VL: DIVMTQSPDSLAVSLGERATINCTASESLYSSKHKVHYLAWYQQKPGQPPKLLIYGASNRPIGVPDRFSGSGSGTDFTLTISSLQAEDVAVYYCGQFYSYPLTFGGGTKVEIK" value_type=OD450 observed_result=0.05
binder="PcOxP_DB03_G09 (scFv, V domains shown, scFv in periplasmic extract) VH: EVQLLESGGGLVQPGGSLRLSCAASGFSFSDFYMEWVRQAPGKGLEWVAASRNKWNDYTTEYADSVKGRFTISRDNSKNTLYLQMNSLRAEDTAVYYCARDYYGSSYWYFDVWGQGTLVTVSS VL: DIVMTQSPDSLAVSLGERATINCTASESLYSSKHKVHYLAWYQQKPGQPPKLLIYGASNRYIGVPDRFSGSGSGTDFTLTISSLQAEDVAVYYCASFYSYPLTFGGGTKVEIK" value_type=OD450 observed_result=0.05
binder="PcOxP_DB02_F10 (scFv, V domains shown, scFv in periplasmic extract) VH: EVQLLESGGGLVQPGGSLRLSCAASGFTFSDQYMEWVRQAPGKGLEWVAASRNKANDYTTEYADSVKGRFTISRDNSKNTLYLQMNSLRAEDTAVYYCARDYYGSSYWYFDVWGQGTLVTVSS VL: DIVMTQSPDSLAVSLGERATINCTSSQSVLSSKHNKNYLAWYQQKPGQPPKLLIYGASNRYWGVPDRFSGSGSGTDFTLTISSLQAEDVAVYYCAQFYSYPLTFGGGTKVEIK" value_type=OD450 observed_result=0.05

Give its OD450 value. Item: PcOxP_DB03_B03 (scFv, V domains shown, scFv in periplasmic extract) VH: EVQLLESGGGLVQPGGSLRLSCAASGFTFSDGYMEWVRQAPGKGLEWVAASRNKANDYTTEYADSVKGRFTISRDNSKNTLYLQMNSLRAEDTAVYYCARDYYGSSYWYFDVWGQGTLVTVSS VL: DIVMTQSPDSLAVSLGERATINCTASESLYSSKHKVHYLAWYQQKPGQPPKLLIYGASNRYIGVPDRFSGSGSGTDFTLTISSLQAEDVAVYYCAQFYVYPLTFGGGTKVEIK
0.04

I have this binder here, PcOxP_DB03_F02 (scFv, V domains shown, scFv in periplasmic extract) VH: EVQLLESGGGLVQPGGSLRLSCAASGFTFSSYYMEWVRQAPGKGLEWVAASRNKANDYTTEYADSVKGRFTISRDNSKNTLYLQMNSLRAEDTAVYYCARDYYDSSYWYFDVWGQGTLVTVSS VL: DIVMTQSPDSLAVSLGERATINCTSSESLLSSKHKVHYLAWYQQKPGQPPKLLIYGASNRYTGVPDRFSGSGSGTDFTLTISSLQAEDVAVYYCAQFYSYPLTFGGGTKVEIK , and I need its recorded OD450.
0.05

Given the entry PcOxP_DB03_G11 (scFv, V domains shown, scFv in periplasmic extract) VH: EVQLLESGGGLVQPGGSLRLSCAASGFTFSSYYMEWVRQAPGKGLEWVAASRNKANDYTTEYADSVKGRFTISRDNSKNTLYLQMNSLRAEDTAVYYCARDYYGSSYWYFDVWGQGTLVTVSS VL: DIVMTQSPDSLAVSLGERATINCKSSQSVLSSKHKKNYLAWYQQKPGQPPKLLIYGASNRYIGVPDRFSGSGSGTDFTLTISSLQAEDVAVYYCAQFYSYPLTFGGGTKVEIK , report its measured OD450.
0.05

# OD450 lookup, item PcOxP_DB03_F11 (scFv, V domains shown, scFv in periplasmic extract) VH: EVQLLESGGGLVQPGGSLRLSCAASGFTFSDYYMEWVRQAPGKGLEWVAASRNKANSYTTAYADSVKGRFTISRDNSKNTLYLQMNSLRAEDTAVYYCARDYYGSSYWYFDVWGQGTLVTVSS VL: DIVMTQSPDSLAVSLGERATINCTSSQSLLYSSNKKHYLAWYQQKPGQPPKLLIYGASNRYIGVPDRFSGSGSGTDFTLTISSLQAEDVAVYYCAQFYEYPLTFGGGTKVEIK
0.06

Would you kindly share the measured OD450 for PcOxP_DB03_G01 (scFv, V domains shown, scFv in periplasmic extract) VH: EVQLLESGGGLVQPGGSLRLSCAASGFTFSDGYMEWVRQAPGKGLEWVAASRNKANFYTTEYADSVKGRFTISRDNSKNTLYLQMNSLRAEDTAVYYCARDHYGSSYWYFDVWGQGTLVTVSS VL: DIVMTQSPDSLAVSLGERATINCTASESLYSSKHKVHYLAWYQQKPGQPPKLLIYGASNRYIGVPDRFSGSGSGTDFTLTISSLQAEDVAVYYCAQFYNYPLTFGGGTKVEIK ?
0.05

Look up OD450 for this binder: PcOxP_DB04_B01 (scFv, V domains shown, scFv in periplasmic extract) VH: EVQLLESGGGLVQPGGSLRLSCAASGFTQSDFYMEWVRQAPGKGLEWVAASRNKANDYTTEYADSVKGRFTISRDNSKNTLYLQMNSLRAEDTAVYYCARDYYGESYWYFDVWGQGTLVTVSS VL: DIVMTQSPDSLAVSLGERATINCTASVSLYSSKHKVHYLAWYQQKPGQPPKLLIYGPSNRYIGVPDRFSGSGSGTDFTLTISSLQAEDVAVYYCAQFYSYPLTFGGGTKVEIK
0.05

What value of measured OD450 is listed for PcOxP_DB02_H02 (scFv, V domains shown, scFv in periplasmic extract) VH: EVQLLESGGGLVQPGGSLRLSCAASGPTFSDFYMEWVRQAPGKGLEWVAASRNKANDYTTEYADSVKGRFTISRDNSKNTLYLQMNSLRAEDTAVYYCARDYYGSSYWYFDVWGQGTLVTVSS VL: DIVMTQSPDSLAVSLGERATINCTASESLYSSKHKVHYLAWYQQKPGQPPKLLIYGASNRYIGVPDRFSGSGSGTDFTLTISSLQAEDVAVYYCAQFYDYPLTFGGGTKVEIK ?
0.04
